molecular target: T1, CD71 apical domain (human, UniProt P02786 189-383, limits assumed); test: solution ELISA screen, signal ratio to HSA control
T1 construct: domain: apical domain
T1 sequence (P02786 189-383 limits assumed): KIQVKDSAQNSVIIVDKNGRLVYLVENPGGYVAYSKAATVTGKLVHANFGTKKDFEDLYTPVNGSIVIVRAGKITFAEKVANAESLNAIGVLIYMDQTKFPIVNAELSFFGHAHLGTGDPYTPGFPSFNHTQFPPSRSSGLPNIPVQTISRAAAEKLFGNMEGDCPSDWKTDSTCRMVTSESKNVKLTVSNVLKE
quantity: apical domain:HSA (ratio)

binder	reportedResult
SEQ ID NO 260 (designed binder, not shown: small tags and cut ends) MLPAPKNLVVSRVTEDSARLSWTAPDAAFDSFYIAYAEPRPDGEAIHLRVPGSERSYDLTGLKPGTEYNVTIQGVKGGFPSMPLSAIFTT	211
SEQ ID NO 265 (designed binder, not shown: small tags and cut ends) MLPAPKNLVVSRVTEDSARLSWTAPDAAFDSFYIAYAEPRPDGEAIVLEVPGSERSYDLTGLKPGTEYSVLIHGVKGGLLSSPLTASFTT	235

[a] SEQ ID NO 269 (designed binder, not shown: small tags and cut ends) MLPAPKNLVVSRVTEDSARLSWTAPDAAFDSFYIAYAEPRPDGEAIWLDVPGSERSYDLTGLKPGTEYSVLIHGVKGGLLSSPLDAYFTT
[b] SEQ ID NO 238 (designed binder, not shown: small tags and cut ends) MLPAPKNLVVSRVTEDSARLSWTTPDAAFDSFYIAYAEPRPDGEAIRLQVPGSERSYDLTGLKPGTEYSVLIHGVKGGLLSSPLGFTT
[c] SEQ ID NO 253 (designed binder, not shown: small tags and cut ends) MLPAPKNLVVSRVTEDSARLSWTAPDAAFDSFYIAYAEPRPDGEAIILHVPGSERSYDLTGLKPGTEYSVLIHGVKGGLLSSPLDAYFTT
Order the items by recorded apical domain:HSA; the first position goes to the largest value. Quick reminder: the answer is the labels in the order asked.
a, c, b
(a: 279 ratio, c: 191 ratio, b: 1.1 ratio)
